So I've got a bunch of binders here, and I need their T½ values.
Target: T1, Dimeric monkey CD48-mFc (monkey)
T1 construct: Soluble monkey CD48 with a C-terminal Fc fusion [mFc]; the whole entry is the construct
T1 chain: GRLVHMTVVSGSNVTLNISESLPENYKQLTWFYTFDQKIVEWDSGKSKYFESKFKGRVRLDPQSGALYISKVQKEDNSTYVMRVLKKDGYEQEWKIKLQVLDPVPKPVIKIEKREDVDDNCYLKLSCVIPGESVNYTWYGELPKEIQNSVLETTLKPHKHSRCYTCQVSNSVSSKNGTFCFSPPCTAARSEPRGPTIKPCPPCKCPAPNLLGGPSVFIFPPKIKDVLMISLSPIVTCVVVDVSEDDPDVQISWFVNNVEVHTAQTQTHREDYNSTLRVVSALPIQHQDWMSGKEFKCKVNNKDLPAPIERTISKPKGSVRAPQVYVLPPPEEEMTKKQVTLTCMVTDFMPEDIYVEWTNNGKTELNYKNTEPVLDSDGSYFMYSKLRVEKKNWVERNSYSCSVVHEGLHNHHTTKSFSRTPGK
Test: SPR (Biacore), antibody captured by anti-Fc, CD48 in solution, 25 C
// units = h; emit number, no label

Query string: State, in one line, measured T½ of H4H1774P (antibody, human IgG4, V domains shown, Human IgG4 Fc (H4H)) VH: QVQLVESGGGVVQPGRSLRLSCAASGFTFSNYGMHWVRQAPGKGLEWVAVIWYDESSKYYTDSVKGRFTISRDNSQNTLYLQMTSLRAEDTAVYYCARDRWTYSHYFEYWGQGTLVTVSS VL: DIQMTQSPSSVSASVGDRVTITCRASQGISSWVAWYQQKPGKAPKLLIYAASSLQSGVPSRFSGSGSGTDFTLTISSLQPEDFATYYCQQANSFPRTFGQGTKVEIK
Result string: 9.3

Query string: State, in one line, measured T½ of H4H1775P (antibody, human IgG4, V domains shown, Human IgG4 Fc (H4H)) VH: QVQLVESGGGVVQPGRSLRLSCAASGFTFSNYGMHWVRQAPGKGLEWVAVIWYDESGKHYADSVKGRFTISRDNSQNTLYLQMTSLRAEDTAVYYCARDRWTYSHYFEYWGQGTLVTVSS VL: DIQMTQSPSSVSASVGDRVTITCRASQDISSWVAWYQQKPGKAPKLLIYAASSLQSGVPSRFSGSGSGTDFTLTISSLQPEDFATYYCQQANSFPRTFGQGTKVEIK
Result string: 29.2

Query string: State, in one line, measured T½ of H4H1713N (antibody, V domains shown, Human IgG4 Fc (H4H)) VH: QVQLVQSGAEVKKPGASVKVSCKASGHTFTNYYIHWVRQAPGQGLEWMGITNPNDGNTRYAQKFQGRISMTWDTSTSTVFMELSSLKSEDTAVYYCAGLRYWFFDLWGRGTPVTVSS VL: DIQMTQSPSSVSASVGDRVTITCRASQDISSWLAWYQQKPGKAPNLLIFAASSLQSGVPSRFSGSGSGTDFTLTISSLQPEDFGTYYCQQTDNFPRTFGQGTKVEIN
Result string: 0.8

Query string: State, in one line, measured T½ of H4H1763N (antibody, V domains shown, Human IgG4 Fc (H4H)) VH: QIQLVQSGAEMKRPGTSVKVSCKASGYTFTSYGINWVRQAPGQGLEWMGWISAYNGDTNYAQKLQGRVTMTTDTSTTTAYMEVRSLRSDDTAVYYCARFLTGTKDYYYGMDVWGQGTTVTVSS VL: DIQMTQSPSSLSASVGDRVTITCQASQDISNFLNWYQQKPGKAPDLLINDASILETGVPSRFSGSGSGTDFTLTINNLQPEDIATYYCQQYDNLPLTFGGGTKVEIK
Result string: 2.8

Query string: State, in one line, measured T½ of H4H1772P (antibody, human IgG4, V domains shown, Human IgG4 Fc (H4H)) VH: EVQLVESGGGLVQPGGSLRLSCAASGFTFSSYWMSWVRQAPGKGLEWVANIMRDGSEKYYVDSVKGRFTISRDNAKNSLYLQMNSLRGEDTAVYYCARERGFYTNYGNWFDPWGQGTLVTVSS VL: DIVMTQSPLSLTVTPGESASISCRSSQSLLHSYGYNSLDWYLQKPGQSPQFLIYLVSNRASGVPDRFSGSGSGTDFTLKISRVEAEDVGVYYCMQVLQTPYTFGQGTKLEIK
Result string: 3.83

Query string: State, in one line, measured T½ of H4H1771P (antibody, human IgG4, V domains shown, Human IgG4 Fc (H4H)) VH: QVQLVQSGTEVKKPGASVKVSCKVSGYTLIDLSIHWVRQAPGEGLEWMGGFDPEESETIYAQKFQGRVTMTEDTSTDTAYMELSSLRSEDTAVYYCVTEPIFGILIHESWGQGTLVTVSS VL: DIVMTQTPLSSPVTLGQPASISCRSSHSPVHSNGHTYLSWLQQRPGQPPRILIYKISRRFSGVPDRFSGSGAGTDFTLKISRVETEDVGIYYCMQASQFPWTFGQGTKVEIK
Result string: 3.5

Query string: State, in one line, measured T½ of H4H1770P (antibody, human IgG4, V domains shown, Human IgG4 Fc (H4H)) VH: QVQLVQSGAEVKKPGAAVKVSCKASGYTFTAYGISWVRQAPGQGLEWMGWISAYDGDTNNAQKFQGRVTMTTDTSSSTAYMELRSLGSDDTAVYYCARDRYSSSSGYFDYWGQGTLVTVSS VL: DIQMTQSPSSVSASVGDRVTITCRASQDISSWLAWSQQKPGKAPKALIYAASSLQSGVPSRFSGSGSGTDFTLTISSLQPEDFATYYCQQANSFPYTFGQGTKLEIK
Result string: 1.72

Query string: State, in one line, measured T½ of H4H1779P (antibody, human IgG4, V domains shown, Human IgG4 Fc (H4H)) VH: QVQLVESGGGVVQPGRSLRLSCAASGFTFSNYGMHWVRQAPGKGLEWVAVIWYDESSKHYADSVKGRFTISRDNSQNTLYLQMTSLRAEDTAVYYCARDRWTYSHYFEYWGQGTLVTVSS VL: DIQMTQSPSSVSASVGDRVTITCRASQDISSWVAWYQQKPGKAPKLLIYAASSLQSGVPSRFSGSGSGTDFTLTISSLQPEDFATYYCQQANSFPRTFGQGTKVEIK
Result string: 6.07

Query string: State, in one line, measured T½ of H4H1707N (antibody, V domains shown, Human IgG4 Fc (H4H)) VH: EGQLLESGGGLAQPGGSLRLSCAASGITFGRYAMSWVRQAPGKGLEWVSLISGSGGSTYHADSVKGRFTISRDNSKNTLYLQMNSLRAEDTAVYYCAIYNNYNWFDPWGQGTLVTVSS VL: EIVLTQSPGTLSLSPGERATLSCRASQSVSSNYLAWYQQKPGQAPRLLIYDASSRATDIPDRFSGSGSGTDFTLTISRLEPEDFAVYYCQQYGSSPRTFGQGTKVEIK
Result string: 0.167

Query string: State, in one line, measured T½ of H4H1781P (antibody, human IgG4, V domains shown, Human IgG4 Fc (H4H)) VH: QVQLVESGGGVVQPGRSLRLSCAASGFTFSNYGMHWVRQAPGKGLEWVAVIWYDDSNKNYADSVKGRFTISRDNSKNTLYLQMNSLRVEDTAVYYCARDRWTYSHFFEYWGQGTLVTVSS VL: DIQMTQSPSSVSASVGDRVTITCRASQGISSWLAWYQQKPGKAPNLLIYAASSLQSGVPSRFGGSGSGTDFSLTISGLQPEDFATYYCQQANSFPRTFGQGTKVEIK
Result string: 9.03

Query string: State, in one line, measured T½ of H4H1778P (antibody, human IgG4, V domains shown, Human IgG4 Fc (H4H)) VH: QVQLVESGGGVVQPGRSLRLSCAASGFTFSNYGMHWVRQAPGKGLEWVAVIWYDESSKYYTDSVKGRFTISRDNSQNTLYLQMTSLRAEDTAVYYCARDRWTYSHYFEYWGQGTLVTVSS VL: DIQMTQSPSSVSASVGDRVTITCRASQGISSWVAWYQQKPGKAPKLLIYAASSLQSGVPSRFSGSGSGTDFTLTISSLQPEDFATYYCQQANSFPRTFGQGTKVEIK
Result string: 10.9

src = patent US20130230533A1
